- System: rhinovirus A2
- Test name: Antiviral activity against Rhinovirus A2 infected in human HeLa cell line assessed as inhibition of virus-induced cytopathic effect measured after 72 hrs by crystal violet uptake assay
- Format: functional, organism-based
- Setup conditions: Rhinovirus A, HeLa, 72 h; read-out: IC50
Reported property: IC50 (nM)

CCOC(=O)c1cc(CCCOc2ccc(-c3noc(C(F)(F)F)n3)cc2C(F)(F)F)on1: 4890
CCOC(=O)c1cc(CCCOc2ccc(-c3noc(C(F)(F)F)n3)cc2[N+](=O)[O-])on1: 47700
Cc1cc(-c2noc(C(F)(F)F)n2)ccc1OCCCc1cc(C(=O)N(C)C)no1: 860
COC(=O)c1cc(CCCOc2c(C)cc(-c3noc(C(F)(F)F)n3)cc2C)on1: 360
